# Target: kinases (Homo sapiens)
# Construct: purchased Eurofins/DiscoveRx; host or cells: E. coli BL21-derived host (T7 phage display) for most kinases; HEK-293 for the rest
# Protocol: KINOMEscan kinase binding assay (Eurofins/DiscoveRx), % Ctrl
# Reported Conditions: 1 μM; target KIT-autoinhibited
Property: % Ctrl, KIT-autoinhibited (% Ctrl)

Structure Smiles String	% Ctrl, KIT-autoinhibited (% Ctrl)
Cc1cc2c([nH]1)/C=C1\C(=O)Nc3ccc(cc31)-c1c(noc1C(C)C)COCCN(C)C2=O	100
CN1CCOc2cc3c(cc2Cl)NC(=O)/C3=C\c2[nH]ccc2C(=O)N(C)CC1	81
Cc1cc2c([nH]1)/C=C1\C(=O)Nc3ccc(cc31)-c1cnn(C)c1OCCCN(C)C2=O	87

A = Cc1cc2c([nH]1)/C=C1\C(=O)Nc3cnc(cc31)-c1cnn(C)c1CN(C)CCN(C)C2=O
B = Cc1cc2c([nH]1)/C=C1\C(=O)Nc3cc(Cl)c(cc31)SCCOCCN(C)C2=O
Asked: Returns: the argument ( A or B ) having the larger % Ctrl, KIT-autoinhibited. Let me know the label of the one you choose.
Given back: A
(A: 100 % Ctrl, B: 25 % Ctrl)

* * *

# Target: kinases (Homo sapiens)
# Construct: purchased Eurofins/DiscoveRx; host or cells: E. coli BL21-derived host (T7 phage display) for most kinases; HEK-293 for the rest
# Protocol: KINOMEscan kinase binding assay (Eurofins/DiscoveRx), % Ctrl
# Reported Conditions: 1 μM; FLT1
Property: % Ctrl, FLT1 (% Ctrl)

Structure Smiles String	% Ctrl, FLT1, % Ctrl
Cc1cc2c([nH]1)/C=C1\C(=O)Nc3cnc(cc31)-c1cnn(C)c1COCCNC2=O	96
Cc1cc2c([nH]1)/C=C1\C(=O)Nc3ccc(cc31)-c1ccnn1CCOCCN(C)C2=O	81

A = Cc1cc2c([nH]1)/C=C1\C(=O)Nc3cc(Cl)c(cc31)OCCOCCN(C)C2=O
B = Cc1cc2c([nH]1)/C=C1\C(=O)Nc3ccc(nc31)-c1ccccc1OCCCNC2=O
C = Cc1cc2c([nH]1)/C=C1\C(=O)Nc3ccc(cc31)-c1c(C)n[nH]c1CNCCN(C)C2=O
Asked: Order the entries by their reported % Ctrl, FLT1, beginning at the minimum. Labels, requested order.
Given back: A, C, B

* * *

# Target: kinases (Homo sapiens, UniProt P07949, V804L)
# Construct: purchased Eurofins/DiscoveRx; host or cells: E. coli BL21-derived host (T7 phage display) for most kinases; HEK-293 for the rest
# Sequence (P07949 29-1114 V804L): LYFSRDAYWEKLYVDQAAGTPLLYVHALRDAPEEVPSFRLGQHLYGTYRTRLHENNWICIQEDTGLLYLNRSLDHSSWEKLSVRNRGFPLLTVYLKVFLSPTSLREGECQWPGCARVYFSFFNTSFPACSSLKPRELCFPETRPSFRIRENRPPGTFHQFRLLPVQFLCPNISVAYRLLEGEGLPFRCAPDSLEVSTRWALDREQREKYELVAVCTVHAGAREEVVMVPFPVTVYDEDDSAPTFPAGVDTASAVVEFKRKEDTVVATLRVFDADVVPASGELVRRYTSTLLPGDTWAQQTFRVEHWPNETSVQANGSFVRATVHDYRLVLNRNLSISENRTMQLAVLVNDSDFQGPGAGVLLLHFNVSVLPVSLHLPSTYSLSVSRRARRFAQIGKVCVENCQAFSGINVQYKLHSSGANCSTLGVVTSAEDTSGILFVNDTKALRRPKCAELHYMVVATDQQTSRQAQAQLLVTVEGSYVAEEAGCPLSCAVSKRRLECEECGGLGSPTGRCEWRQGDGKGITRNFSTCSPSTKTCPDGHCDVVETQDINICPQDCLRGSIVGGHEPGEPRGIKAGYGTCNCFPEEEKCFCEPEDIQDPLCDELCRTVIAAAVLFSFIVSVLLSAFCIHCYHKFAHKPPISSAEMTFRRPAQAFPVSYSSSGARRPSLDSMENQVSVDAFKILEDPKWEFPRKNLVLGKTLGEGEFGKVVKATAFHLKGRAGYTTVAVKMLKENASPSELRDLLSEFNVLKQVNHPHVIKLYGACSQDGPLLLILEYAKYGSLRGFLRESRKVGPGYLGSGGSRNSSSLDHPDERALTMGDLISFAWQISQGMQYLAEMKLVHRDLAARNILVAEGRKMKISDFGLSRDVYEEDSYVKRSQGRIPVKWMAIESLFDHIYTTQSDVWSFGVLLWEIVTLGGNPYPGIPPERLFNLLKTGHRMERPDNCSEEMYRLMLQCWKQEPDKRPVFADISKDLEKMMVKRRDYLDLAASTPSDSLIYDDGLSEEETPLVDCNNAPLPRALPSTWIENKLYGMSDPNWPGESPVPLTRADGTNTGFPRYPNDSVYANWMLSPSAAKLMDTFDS
# Protocol: KINOMEscan kinase binding assay (Eurofins/DiscoveRx), % Ctrl
# Reported Conditions: 1 μM; RET(V804L)
Property: % Ctrl, RET(V804L) (% Ctrl)

Structure Smiles String	Display Unit	% Ctrl, RET(V804L)
Cc1cc2c([nH]1)/C=C1\C(=O)Nc3cc(Cl)c(cc31)OCCO[C@@H](C(=O)NC1CNC1)CN(C)C2=O	% Ctrl	58
Cc1cc2c([nH]1)/C=C1\C(=O)Nc3cc(Cl)c(cc31)OCCOCCN(C)C2=O	% Ctrl	0

I = Cc1cc2c([nH]1)/C=C1\C(=O)Nc3cc(Cl)c(cc31)OCCO[C@@H](C(=O)N[C@@H]1CCNC1)CN(C)C2=O
II = Cc1cc2c([nH]1)/C=C1\C(=O)Nc3ccc(nc31)-c1ccccc1OCCCNC2=O
Asked: Returns: the argument ( I or II ) having the larger % Ctrl, RET(V804L). Let me know the label of the one you choose.
Given back: II

* * *

# Target: kinases (Homo sapiens, UniProt P17948)
# Construct: purchased Eurofins/DiscoveRx; host or cells: E. coli BL21-derived host (T7 phage display) for most kinases; HEK-293 for the rest
# Sequence (P17948 27-1338): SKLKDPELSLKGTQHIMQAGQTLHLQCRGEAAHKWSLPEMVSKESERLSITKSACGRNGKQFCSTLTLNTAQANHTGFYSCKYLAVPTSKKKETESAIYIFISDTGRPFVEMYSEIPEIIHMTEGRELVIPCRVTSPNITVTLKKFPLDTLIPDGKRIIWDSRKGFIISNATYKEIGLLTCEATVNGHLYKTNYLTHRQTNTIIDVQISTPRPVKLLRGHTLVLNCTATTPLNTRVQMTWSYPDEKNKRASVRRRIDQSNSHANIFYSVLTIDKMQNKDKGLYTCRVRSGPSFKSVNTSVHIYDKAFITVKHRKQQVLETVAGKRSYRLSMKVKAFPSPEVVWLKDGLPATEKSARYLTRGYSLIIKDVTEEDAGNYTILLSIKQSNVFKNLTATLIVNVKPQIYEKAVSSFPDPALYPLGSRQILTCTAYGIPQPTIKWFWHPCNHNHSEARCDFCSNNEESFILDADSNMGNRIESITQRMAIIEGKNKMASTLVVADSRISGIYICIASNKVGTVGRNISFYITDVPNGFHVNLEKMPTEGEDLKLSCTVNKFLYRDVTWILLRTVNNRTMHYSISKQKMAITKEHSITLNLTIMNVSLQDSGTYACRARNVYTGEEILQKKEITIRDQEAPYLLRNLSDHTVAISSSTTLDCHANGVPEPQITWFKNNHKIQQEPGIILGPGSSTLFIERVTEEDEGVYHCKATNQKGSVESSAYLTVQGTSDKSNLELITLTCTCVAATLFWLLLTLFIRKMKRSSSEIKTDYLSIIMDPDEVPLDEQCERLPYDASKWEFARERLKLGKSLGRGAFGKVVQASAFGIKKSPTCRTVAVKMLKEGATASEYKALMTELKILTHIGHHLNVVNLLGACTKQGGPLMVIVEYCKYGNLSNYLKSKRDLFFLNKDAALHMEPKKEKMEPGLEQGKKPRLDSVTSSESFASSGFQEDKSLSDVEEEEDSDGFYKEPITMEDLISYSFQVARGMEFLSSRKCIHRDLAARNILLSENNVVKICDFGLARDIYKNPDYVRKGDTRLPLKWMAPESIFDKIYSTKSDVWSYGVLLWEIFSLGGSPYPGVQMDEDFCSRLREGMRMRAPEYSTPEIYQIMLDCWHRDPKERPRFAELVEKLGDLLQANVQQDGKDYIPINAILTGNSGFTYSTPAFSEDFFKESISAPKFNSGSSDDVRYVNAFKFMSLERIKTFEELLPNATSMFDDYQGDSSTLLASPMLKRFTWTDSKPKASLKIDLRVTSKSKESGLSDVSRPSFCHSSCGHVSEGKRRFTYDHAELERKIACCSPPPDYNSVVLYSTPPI
# Protocol: KINOMEscan kinase binding assay (Eurofins/DiscoveRx), % Ctrl
# Reported Conditions: 1 μM; FLT1
Property: % Ctrl, FLT1 (% Ctrl)

Previously resolved entries follow.
Structure Smiles String	Target	% Ctrl, FLT1 (% Ctrl)
Cc1cc2c([nH]1)/C=C1\C(=O)Nc3cc(Cl)c(cc31)OCCO[C@@H](C(=O)N[C@@H]1CCNC1)CN(C)C2=O	kinases (Homo sapiens, UniProt P17948)	97
Cc1cc2c([nH]1)/C=C1\C(=O)Nc3ccc(cc31)-c1c(noc1C)COCCN(C)C2=O	kinases (Homo sapiens, UniProt P17948)	85

P = Cc1cc2c([nH]1)/C=C1\C(=O)Nc3ccc(cc31)O[C@@H](C)COCCN(C)C2=O
Q = Cc1cc2c([nH]1)/C=C1\C(=O)Nc3ccc(cc31)-c1cnn(C)c1CN(C)CCN(C)C2=O
Asked: Returns: the argument ( P or Q ) having the larger % Ctrl, FLT1. Let me know the label of the one you choose.
Given back: P
(P: 90 % Ctrl, Q: 0.65 % Ctrl)

* * *

# Target: kinases (Homo sapiens, UniProt P07949, M918T)
# Construct: purchased Eurofins/DiscoveRx; host or cells: E. coli BL21-derived host (T7 phage display) for most kinases; HEK-293 for the rest
# Sequence (P07949 29-1114 M918T): as the sequence (P07949 29-1114 V804L) above, with L776V, M890T counted along it
# Protocol: KINOMEscan kinase binding assay (Eurofins/DiscoveRx), % Ctrl
# Reported Conditions: 1 μM; RET(M918T)
Property: % Ctrl, RET(M918T) (% Ctrl)

Previously resolved entries follow.
Structure Smiles String	Display Unit	% Ctrl, RET(M918T)
Cc1cc2c([nH]1)/C=C1\C(=O)Nc3ccc(cc31)-c1c(noc1C)COCCN(C)C2=O	% Ctrl	93
Cc1cc2c([nH]1)/C=C1\C(=O)Nc3ccc(cc31)-c1cnn(C)c1CN(C)CCN(C)C2=O	% Ctrl	0
Cc1cc2c([nH]1)/C=C1\C(=O)Nc3ccc(nc31)-c1ccccc1OCCCNC2=O	% Ctrl	92

a = Cc1cc2c([nH]1)/C=C1\C(=O)Nc3cnc(nc31)N(C)CCCOCCN(C)C2=O
b = Cc1cc2c([nH]1)/C=C1\C(=O)Nc3ccc(cc31)O[C@@H](C)COCCN(C)C2=O
Asked: Please indicate which entry, a or b , has the lower recorded % Ctrl, RET(M918T) value. Let me know the label of the one you choose.
Given back: b
(b: 59 % Ctrl, a: 91 % Ctrl)

a = Cc1cc2c([nH]1)/C=C1\C(=O)Nc3cc(Cl)c(cc31)OCCO[C@@H](C(=O)NC1CCNCC1)CN(C)C2=O
b = Cc1cc2c([nH]1)/C=C1\C(=O)Nc3ccc(cc31)-c1ccnn1CCNCCNC2=O
c = Cc1cc2c([nH]1)/C=C1\C(=O)Nc3ccc(cc31)-c1cnn(C)c1COCCN(C)C2=O
Asked: Parameters: sort_field (% Ctrl, RET(M918T)), sort_dir (desc). Labels, requested order.
Given back: b, a, c
(b: 95 % Ctrl, a: 32 % Ctrl, c: 0 % Ctrl)

* * *

# Target: kinases (Homo sapiens, UniProt P10721, V559D/V654A)
# Construct: purchased Eurofins/DiscoveRx; host or cells: E. coli BL21-derived host (T7 phage display) for most kinases; HEK-293 for the rest
# Sequence (P10721 26-976 V559D/V654A): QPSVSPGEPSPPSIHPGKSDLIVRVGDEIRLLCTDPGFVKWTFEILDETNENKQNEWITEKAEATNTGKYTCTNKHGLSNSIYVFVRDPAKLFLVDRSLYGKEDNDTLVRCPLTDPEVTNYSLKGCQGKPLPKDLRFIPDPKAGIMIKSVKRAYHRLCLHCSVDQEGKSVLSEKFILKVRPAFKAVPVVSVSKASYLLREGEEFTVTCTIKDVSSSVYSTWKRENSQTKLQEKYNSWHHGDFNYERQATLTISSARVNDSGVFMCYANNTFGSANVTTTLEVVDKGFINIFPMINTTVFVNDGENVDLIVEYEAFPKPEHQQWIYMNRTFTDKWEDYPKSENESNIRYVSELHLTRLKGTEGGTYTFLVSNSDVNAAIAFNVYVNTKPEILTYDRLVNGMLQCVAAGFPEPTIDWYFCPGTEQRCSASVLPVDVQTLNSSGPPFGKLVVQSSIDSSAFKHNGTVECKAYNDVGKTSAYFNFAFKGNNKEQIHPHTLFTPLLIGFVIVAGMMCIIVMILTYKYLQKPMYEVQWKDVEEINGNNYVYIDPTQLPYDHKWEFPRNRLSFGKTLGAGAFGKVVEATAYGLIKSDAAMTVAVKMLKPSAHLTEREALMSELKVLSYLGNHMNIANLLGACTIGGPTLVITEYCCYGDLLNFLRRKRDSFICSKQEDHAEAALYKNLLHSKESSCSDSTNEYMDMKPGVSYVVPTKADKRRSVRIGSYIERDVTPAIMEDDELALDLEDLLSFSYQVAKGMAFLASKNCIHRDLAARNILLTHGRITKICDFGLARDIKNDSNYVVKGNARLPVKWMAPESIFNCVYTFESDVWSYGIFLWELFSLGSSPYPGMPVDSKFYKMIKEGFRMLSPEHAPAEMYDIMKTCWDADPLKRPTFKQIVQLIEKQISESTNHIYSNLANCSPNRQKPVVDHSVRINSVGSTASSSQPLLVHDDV
# Protocol: KINOMEscan kinase binding assay (Eurofins/DiscoveRx), % Ctrl
# Reported Conditions: 1 μM; KIT(V559D, V654A)
# Protocol: Kinase binding assays were performed at Eurofins/DiscoveRx using the general KINOMEscan Protocol (Fabian, M. A. et al., “A small molecule-kinase interaction map for clinical kinase inhibitors,” Nat. Biotechnol. 2005, 23(3):329-36). For most assays, kinase-tagged T7 phage strains were prepared in an E. coli host derived from the BL21 strain. […] The kinase concentration in the eluates was measured by qPCR. […]
Property: % Ctrl, KIT(V559D, V654A) (% Ctrl)

Previously resolved entries follow.
Structure Smiles String	Target	Result Number
Cc1cc2c([nH]1)/C=C1\C(=O)Nc3cc(Cl)c(cc31)OCCO[C@@H](C(=O)NC1CNC1)CN(C)C2=O	kinases (Homo sapiens, UniProt P10721, V559D/V654A)	83
Cc1cc2c([nH]1)/C=C1\C(=O)Nc3ccc(cc31)OCCOCCNC2=O	kinases (Homo sapiens, UniProt P10721, V559D/V654A)	98

1 = Cc1cc2c([nH]1)/C=C1\C(=O)Nc3cc(Cl)c(cc31)OCCO[C@@H](C(=O)NC1CCNCC1)CN(C)C2=O
2 = Cc1cc2c([nH]1)/C=C1\C(=O)Nc3ccc(cc31)-c1cnn(C)c1CN(C)CCN(C)C2=O
Asked: Returns: the argument ( 1 or 2 ) having the larger % Ctrl, KIT(V559D, V654A). Let me know the label of the one you choose.
Given back: 1
(1: 64 % Ctrl, 2: 0.4 % Ctrl)

* * *

# Target: kinases (Homo sapiens, UniProt P36888)
# Construct: purchased Eurofins/DiscoveRx; host or cells: E. coli BL21-derived host (T7 phage display) for most kinases; HEK-293 for the rest
# Sequence (P36888 27-993): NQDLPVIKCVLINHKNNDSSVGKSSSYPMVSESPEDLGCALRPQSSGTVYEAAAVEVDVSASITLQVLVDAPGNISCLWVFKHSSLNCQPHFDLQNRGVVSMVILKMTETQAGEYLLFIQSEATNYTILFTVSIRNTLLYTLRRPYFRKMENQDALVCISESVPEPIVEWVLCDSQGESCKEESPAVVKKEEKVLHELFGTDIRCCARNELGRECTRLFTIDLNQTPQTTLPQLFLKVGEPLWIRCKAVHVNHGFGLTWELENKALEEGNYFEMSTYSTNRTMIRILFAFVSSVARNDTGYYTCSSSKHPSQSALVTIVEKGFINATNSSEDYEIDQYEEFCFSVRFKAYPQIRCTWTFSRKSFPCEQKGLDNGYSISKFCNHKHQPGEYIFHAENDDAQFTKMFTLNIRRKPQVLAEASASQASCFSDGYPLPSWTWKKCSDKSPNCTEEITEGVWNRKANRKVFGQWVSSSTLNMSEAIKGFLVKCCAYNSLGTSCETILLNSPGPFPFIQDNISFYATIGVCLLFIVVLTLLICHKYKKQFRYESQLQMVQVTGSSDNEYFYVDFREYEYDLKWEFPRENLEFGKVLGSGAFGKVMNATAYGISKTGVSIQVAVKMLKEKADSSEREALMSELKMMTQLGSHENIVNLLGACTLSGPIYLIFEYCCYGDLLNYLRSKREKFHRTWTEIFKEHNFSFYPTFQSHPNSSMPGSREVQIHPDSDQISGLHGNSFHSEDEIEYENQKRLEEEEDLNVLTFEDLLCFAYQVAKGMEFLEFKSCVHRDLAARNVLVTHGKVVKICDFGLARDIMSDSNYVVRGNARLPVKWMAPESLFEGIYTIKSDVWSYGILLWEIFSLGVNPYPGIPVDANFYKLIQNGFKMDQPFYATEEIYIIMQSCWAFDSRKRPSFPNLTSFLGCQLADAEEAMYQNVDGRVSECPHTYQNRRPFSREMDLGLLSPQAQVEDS
# Protocol: KINOMEscan kinase binding assay (Eurofins/DiscoveRx), % Ctrl
# Reported Conditions: target FLT3-autoinhibited; 1 μM
Property: % Ctrl, FLT3-autoinhibited (% Ctrl)

Previously resolved entries follow.
Structure Smiles String	% Ctrl, FLT3-autoinhibited / % Ctrl
CN1CCOCCOc2cc3c(cc2Cl)NC(=O)/C3=C\c2[nH]ccc2C1=O	62
Cc1cc2c([nH]1)/C=C1\C(=O)Nc3ccc(cc31)-c1c(noc1C)CNCCN(C)C2=O	67
Cc1cc2c([nH]1)/C=C1\C(=O)Nc3ccc(cc31)-c1c(C)nn(C)c1COCCN(C)C2=O	100
Cc1cc2c([nH]1)/C=C1\C(=O)Nc3cnc(cc31)-c1cn[nH]c1CNCCN(C)C2=O	10
Cc1nn(C)c2c1-c1ccc3c(c1)/C(=C/c1[nH]ccc1C(=O)N(C)CCCO2)C(=O)N3	82

a = Cc1cc2c([nH]1)/C=C1\C(=O)Nc3cc(Cl)c(cc31)OCCO[C@@H](C(=O)N1CCN(C)CC1)CN(C)C2=O
b = CN1CCSCCOc2cc3c(cc2Cl)NC(=O)/C3=C\c2[nH]ccc2C1=O
Asked: Returns: the argument ( a or b ) having the larger % Ctrl, FLT3-autoinhibited. Let me know the label of the one you choose.
Given back: a
